Experiment: Cytotoxicity against human C8166 cells
Type: cell-based
Kindly supply the reported CC50 values for the records listed here.
Express it in µM; write the number only.

Lookup: Quick one: CC50 for CCN1C(=O)C(c2ccc(-c3ccncc3)cc2)C(=O)N(c2ccccc2)c2cc(C(F)(F)F)ccc21 (centres undefined) ?
Found: 15

Lookup: Same for CCN1C(=O)C(c2cccc(-c3cnn(C)c3)c2)C(=O)N(c2ccccc2)c2cc(C(F)(F)F)ccc21 (centres undefined)
Found: 20

Lookup: Same for CCN1C(=O)C(c2ccc(-c3cccnc3)cc2)C(=O)N(c2ccccc2)c2cc(C(F)(F)F)ccc21 (centres undefined)
Found: 7

Lookup: Same for CCN1C(=O)C(c2ccc(O)c(OC)c2)C(=O)N(c2ccccc2)c2cc(C(F)(F)F)ccc21 (centres undefined)
Found: 42

Lookup: Same for CCN1C(=O)C(c2cccc(-c3ccnn3C)c2)C(=O)N(c2ccccc2)c2cc(C(F)(F)F)ccc21 (centres undefined)
Found: 30

Lookup: Same for CCN1C(=O)C(c2cccc(-c3ccncc3)c2)C(=O)N(c2ccccc2)c2cc(C(F)(F)F)ccc21 (centres undefined)
Found: 17

Lookup: Same for CCN1C(=O)C(c2cccc(-c3cccnc3)c2)C(=O)N(c2ccccc2)c2cc(C(F)(F)F)ccc21 (centres undefined)
Found: 20
